Target: Plk1-Map interaction (Homo sapiens, UniProt P53350)
Sequence (P53350 whole entry): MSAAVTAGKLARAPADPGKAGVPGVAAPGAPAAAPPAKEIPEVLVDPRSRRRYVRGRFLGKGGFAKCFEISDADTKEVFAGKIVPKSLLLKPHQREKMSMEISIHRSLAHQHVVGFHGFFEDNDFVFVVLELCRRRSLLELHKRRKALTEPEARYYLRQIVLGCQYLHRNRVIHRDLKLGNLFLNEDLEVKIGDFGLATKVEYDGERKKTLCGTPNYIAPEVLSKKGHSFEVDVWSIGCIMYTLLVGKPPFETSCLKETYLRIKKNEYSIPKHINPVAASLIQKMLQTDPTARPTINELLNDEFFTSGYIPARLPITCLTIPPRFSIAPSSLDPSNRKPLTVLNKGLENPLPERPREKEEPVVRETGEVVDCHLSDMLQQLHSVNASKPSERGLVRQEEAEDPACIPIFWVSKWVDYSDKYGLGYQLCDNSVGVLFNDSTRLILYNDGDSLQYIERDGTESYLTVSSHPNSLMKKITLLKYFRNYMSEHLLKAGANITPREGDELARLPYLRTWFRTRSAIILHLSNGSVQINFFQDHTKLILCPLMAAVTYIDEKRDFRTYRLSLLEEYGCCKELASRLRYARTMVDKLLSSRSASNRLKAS
Assay: BRET Plk1-Map, stable HEK293T Plk1-Luc/GFP-Map cell line
Assay type: cell-based
Parameters: cDNAs for the human full length Plk1; expressed in transfected cells
Conditions: confirmation screen
Measured endpoint: Confirmation Plk1-Map (stable) % Inihibition (%)

Examples with answers:
1) Cc1cc(C(F)(F)F)cc(S(=O)(=O)CCOC(=O)c2cccc(Cl)c2)n1 [Cpd 16]; 30.79
2) N#Cc1cccnc1S(=O)(=O)CCOC(=O)c1cccc(Cl)c1 [Cpd 15]; 41.55
3) COc1ccc(-c2oc3ccccc3c(=O)c2OS(=O)(=O)c2ccccc2)cc1 [Cpd 46]; 30.35

a: COc1ccc(-c2oc3ccccc3c(=O)c2OS(=O)(=O)c2cc(Cl)ccc2Cl)cc1 [Cpd 122]
b: COc1ccc(-c2oc3ccccc3c(=O)c2OS(=O)(=O)c2cc(OC)ccc2OC)cc1 [Cpd 69]
Ask: Among a and b , which shows a numerically higher Confirmation Plk1-Map (stable) % Inihibition result? When you have decided, please share the label of that item.
Result: b

====

Target: GST-PBD367-603 of Plk1 (Homo sapiens, UniProt P53350)
Test: fluorescence polarization assay PBD-phosphopeptide
Conditions: read-out: FP - IC50; Table S3
pIC50: −log10 of the molar value.
Measured endpoint: pIC50

Recorded pIC50, per entry:
1) O=C(OCCS(=O)(=O)c1ccc([N+](=O)[O-])cn1)c1cccc(Cl)c1; 5.27
2) O=C(OCCS(=O)(=O)c1ccc(Cl)cn1)c1cccc(Cl)c1; 4.15
3) Cc1cc(C(F)(F)F)cc(S(=O)(=O)CCOC(=O)c2cc(Cl)cc(Cl)c2)n1; 4.32
4) Cc1cc(C(F)(F)F)cc(S(=O)(=O)CCOS(C)(=O)=O)n1; 5.22
5) O=C(OCCS(=O)(=O)c1ccc(C(F)(F)F)cn1)c1ccccc1; 5.07

a: O=C(OCCS(=O)(=O)c1ccc(C(F)(F)F)cn1)c1cccc(Cl)c1
b: O=C(OCCS(=O)(=O)c1ncccc1Cl)c1cccc(Cl)c1
Ask: Higher pIC50 between a and b ? Your answer should be the label attached to the chosen record.
Result: b

====

Quick reference: Average-Beads (mean luminescence) of the listed items.
Target: Plk1-Map interaction (Homo sapiens, UniProt P53350)
Assay: LUMIER co-immunoprecipitation assay Plk1-Map
Settings: 10-25 μM, 2 h

Some entries whose results are on file:
1) O=c1c(O)cccc2cc(O)c(O)c(O)c12 [PPG, purpurogallin, reference compound]; 301,042
2) N#Cc1cccnc1S(=O)(=O)CCOC(=O)c1cccc(Cl)c1 [Cpd 15]; 18,942
3) COc1ccc(-c2oc3ccccc3c(=O)c2OS(=O)(=O)c2ccccc2)cc1 [Cpd 46]; 601,974

Ask: Give its Average-Beads (mean luminescence) value. Item: Cc1cc(C(F)(F)F)cc(S(=O)(=O)CCOC(=O)c2cccc(Cl)c2)n1 [Cpd 16]
Result: 25,276

Ask: Continue with COc1ccc(-c2oc3ccccc3c(=O)c2OS(=O)(=O)c2cc(OC)ccc2OC)cc1 [Cpd 69]
Result: 281,985

Ask: Proceed to COc1ccc(-c2oc3ccccc3c(=O)c2OS(=O)(=O)c2cc(Cl)ccc2Cl)cc1 [Cpd 122]
Result: 1,018,574

====

Molecular target: Plk1-Map interaction (Homo sapiens)
Assay: BRET Plk1-Map, transient Luc-Map/Plk1-GFP in HEK293T
Type: cell-based
Set-up: cDNAs for the human full length Plk1; expressed in transfected cells
Conditions: confirmation screen
Measured endpoint: Confirmation Plk1-Map (transient) % Inihibition (%)

Please review the following examples before continuing.
1. N#Cc1cccnc1S(=O)(=O)CCOC(=O)c1cccc(Cl)c1; 53.01
2. Cc1cc(C(F)(F)F)cc(S(=O)(=O)CCOC(=O)c2cccc(Cl)c2)n1; 30.06
3. COc1ccc(-c2oc3ccccc3c(=O)c2OS(=O)(=O)c2cc(Cl)ccc2Cl)cc1; -1.93

P: COc1ccc(-c2oc3ccccc3c(=O)c2OS(=O)(=O)c2ccccc2)cc1
Q: COc1ccc(-c2oc3ccccc3c(=O)c2OS(=O)(=O)c2cc(OC)ccc2OC)cc1
Ask: Which record shows the lower Confirmation Plk1-Map (transient) % Inihibition: the first, P , or the second, Q ? When you have decided, please share the label of that item.
Result: P
(P: -29.25%, Q: -0.61%)

====

Target: GST-PBD367-603 of Plk1 (Homo sapiens)
Experiment: fluorescence polarization assay PBD-phosphopeptide
Conditions: read-out: FP - IC50; Table S3
pIC50: −log10 of the molar value.
Measured endpoint: pIC50

Worked examples, 7 compounds total:
1) Cc1cc(C(F)(F)F)cc(S(=O)(=O)CCOC(=O)C2CCCCC2)n1 [Cpd 160]; 4.12
2) O=C(OCCS(=O)(=O)c1ncccc1C(F)(F)F)c1cccc(Cl)c1 [Cpd 128]; 5.08
3) CC(C)(C)c1ccc(C(=O)OCCS(=O)(=O)c2ccc(C(F)(F)F)cn2)cc1 [Cpd 132]; 4.58
4) Cc1cc(C(F)(F)F)cc(S(=O)(=O)CCOC(=O)c2cccc(Br)c2)n1 [Cpd 154]; 4.43
5) O=C(OCCS(=O)(=O)c1ccccn1)c1cccc(Cl)c1 [Cpd 127]; 3.73
6) Cc1cc(C(F)(F)F)cc(S(=O)(=O)CCOC(=O)c2cccc(OC(F)(F)F)c2)n1 [Cpd 151]; 4.38
7) O=C(OCCS(=O)(=O)c1ccc(C(F)(F)F)cn1)c1ccc(Cl)c(Cl)c1 [Cpd 130]; 5.11

A: Cc1ccc(C(=O)OCCS(=O)(=O)c2ccc(C(F)(F)F)cn2)cc1 [Cpd 123]
B: Cc1cccc(C(=O)OCCS(=O)(=O)c2cc(C(F)(F)F)cc(C)n2)c1 [Cpd 152]
Ask: Of A and B , whose reported pIC50 is numerically smaller? Respond using the label that marks the chosen record.
Result: B

====

Biological target: GST-PBD367-603 of Plk1 (Homo sapiens)
Assay: fluorescence polarization assay PBD-phosphopeptide
Conditions: SAR
Measured endpoint: activity in the FP assay

1. Cc1cc(C(F)(F)F)cc([S+]([O-])CCOC(=O)c2cccc(Cl)c2)n1 (stereo not drawn); activity was abolished
2. O=C(NCCS(=O)(=O)c1ccc(C(F)(F)F)cn1)c1ccc(Cl)cc1; activity was abolished
3. Cc1cc(C(F)(F)F)cc(SCCOC(=O)c2cccc(Cl)c2)n1; activity was abolished

====

Molecular target: GST-PBD367-603 of Plk1 (Homo sapiens, UniProt P53350)
Experiment: fluorescence polarization assay PBD-phosphopeptide
Details: FP - IC50 (μM), Table S3
Measured endpoint: IC50 (µM)

1. O=C(OCCS(=O)(=O)c1ccccn1)c1ccccc1; 68.6
2. C=CS(=O)(=O)c1cc(C(F)(F)F)cc(C)n1; 8.3

I: Cc1cc(C(F)(F)F)cc(S(=O)(=O)CCOC(=O)c2cccc(Cl)c2)n1
II: N#Cc1cccnc1S(=O)(=O)CCOC(=O)c1cccc(Cl)c1
Ask: Hi there, can you help? I need to know whether I or II has lower measured IC50. Your answer should be the label of the entry you select.
Result: II

====

Target: Plk1-Map interaction (Homo sapiens)
Assay: BRET Plk1-Map, stable HEK293T Plk1-Luc/GFP-Map cell line
Assay type: cell-based
Design: cDNAs for the human full length Plk1; expressed in transfected cells
Details: 10-25 μM, 2 h
Measured endpoint: Primary screen Plk1-Map (stable) % Inihibition (%)

Examples with their reported Primary screen Plk1-Map (stable) % Inihibition follow.
1. Cc1cc(C(F)(F)F)cc(S(=O)(=O)CCOC(=O)c2cccc(Cl)c2)n1; 67.34
2. COc1ccc(-c2oc3ccccc3c(=O)c2OS(=O)(=O)c2cc(Cl)ccc2Cl)cc1; 44.05

P: COc1ccc(-c2oc3ccccc3c(=O)c2OS(=O)(=O)c2ccccc2)cc1
Q: COc1ccc(-c2oc3ccccc3c(=O)c2OS(=O)(=O)c2cc(OC)ccc2OC)cc1
Ask: Returns the identifier with the smallest measured Primary screen Plk1-Map (stable) % Inihibition among P and Q . Lab log: write the label of the selected item as the result.
Result: P
(P: 53.18%, Q: 77.38%)

====

Biological target: Plk1-Map interaction (Homo sapiens)
Test: LUMIER co-immunoprecipitation assay Plk1-Map
Conditions: 10-25 μM, 2 h
Measured endpoint: Co-IP Values relative to top in plate column = 1

Example cases with answers are listed next.
1. N#Cc1cccnc1S(=O)(=O)CCOC(=O)c1cccc(Cl)c1; 0.017
2. COc1ccc(-c2oc3ccccc3c(=O)c2OS(=O)(=O)c2cc(OC)ccc2OC)cc1; 0.866

a: COc1ccc(-c2oc3ccccc3c(=O)c2OS(=O)(=O)c2cc(Cl)ccc2Cl)cc1
b: COc1ccc(-c2oc3ccccc3c(=O)c2OS(=O)(=O)c2ccccc2)cc1
c: Cc1cc(C(F)(F)F)cc(S(=O)(=O)CCOC(=O)c2cccc(Cl)c2)n1
Ask: Ascending by Co-IP Values relative to top in plate column = 1, please. Submit the labels in the order that the ranking request calls for.
Result: c, b, a
(c: 0.022, b: 0.219, a: 0.776)
